test system: IGROV1 ovarian; test: NCI tumour cell line growth inhibition, 48 h; in the data active = GI50 below about 0.43 µM; inactive = the rest
Output constraint: value belongs to t for active, f for inactive

1) Cn1c([N+](=O)[O-])cnc1/C=C1\Oc2ccc(Br)cc2C1=O    f
2) COc1ccccc1/C=C/C(=O)c1ccc(Nc2nc(Nc3ccc(F)cc3)nc(Nc3ccc(F)cc3)n2)cc1    f
3) CN(C)CCNc1c2c(c(NCCN(C)C)c3c(CN(C)C)c[nH]c13)C(=O)c1ccccc1C2=O    f

Kindly consider the entry below.
Dear colleague, could you share the recorded outcome for O=C(c1ccc(Oc2ccccc2)cc1Cl)c1c[nH]c2ncnc(N[C@@H]3CC[C@@H](CO)OC3)c12 when you have a moment? t

---

test system: PC-3 prostate; experiment: NCI tumour cell line growth inhibition, 48 h
*1 amine or outer side, *2 acyl side, *3 side chain or, on linkers, in order; H or OH if unused. Where a SMILES comes first, the peptide text is derived from it. [ ]: non-standard residue; d: D form. The star is where a group is joined. ξ: configuration not given here. X53 = CC(C)C[C@H](N[*:1])C1=N[C@H](C(=O)[*:2])CS1; Ile(3ξ) = CCC(C)[C@H](N)C(=O)O; Allyl(1,1-Me2) = C=CC(C)(C)*
READOUT_KIND: TGI

1) CCn1cc(C(=O)O)c(=O)c2ccc(C)nc21    > 100 µM
2) CN(C)C1C(CO)OC(n2cnc3c(N)ncnc32)C1O (centres undefined)    > 100 µM
3) C[Si](C)(C)CNC(=O)OCc1ccccc1    > 100 µM

# return TGI for each item in the list
1. Nc1nc(SCc2ccccc2)nc2[nH]ncc12
2. OCN(CO)c1ccc2c(c1)Cc1cc(F)ccc1-2
3. NC(N)=Nc1ccc(CC(N)C(=O)NCC(=O)C(CC(=O)O)c2ncc(NC(=O)C(F)(F)F)o2)cc1 (centres undefined)
4. CCOC(=O)c1cc(C(=O)c2cc(OC)cc(OC)c2)n2nc(C)ccc12

28.7 µM
36.2 µM
> 25 µM
> 100 µM

# return TGI for each item in the list
1. C=CC(C)(C)OC[C@@H]1NC(=O)CNC(=O)[C@@H]2CCCN2C(=O)[C@H](C(C)CC)NC(=O)[C@@H]2CSC(=N2)[C@H](CC(C)C)NC1=O (some centres undefined) (cyclo(GS(Allyl(1,1-Me2))[X53][Ile(3ξ)]P))
2. CN(C)CCNC(=O)c1cccc2nc3c(ccc4ccccc43)nc12
3. COc1cc(/C=C/c2cc(/C=C/c3ccc(O)c(OC)c3)n(C(=O)Cc3ccccc3)n2)ccc1O
4. O=C(O)/C(=C/c1ccccc1)c1ccccc1

1. > 100 µM
2. 10.1 µM
3. 4.34 µM
4. > 100 µM

# return TGI for each item in the list
1. CSc1ccc(C2=NN(c3ccccc3)C(c3ccc(-c4cc(Cl)c(Cl)cc4Cl)o3)C2)cc1 (centres undefined)
2. CCC(=O)OCC1OC(n2cnc3c(=S)nc(N)[nH]c32)C(OC(=O)CC)C1OC(=O)CC (centres undefined)
3. O=C1C(Cl)=C(Cl)C(Cl)(Cl)C(Cl)C1(Cl)Cl (centres undefined)
4. CN(c1ccc(Cl)c(Cl)c1)c1cnc2cc(N)cc(N)c2n1

1. > 100 µM
2. > 100 µM
3. 77.1 µM
4. 18.1 µM

# return TGI for each item in the list
1. COc1ccc(C(c2ccc(OC)cc2)N2C(=O)CCC2C(=O)O)cc1 (centres undefined)
2. CCN(Cc1cc(F)cc(F)c1)c1ccc(CO)c(Cl)c1
3. CCOC(=O)c1csc(NC(=O)CN2CCN(c3ccccc3)CC2)n1
4. O=c1c(-c2ccccc2)c(SCCN2CCCC2)n(-c2ccccc2)c(=S)n1-c1ccccc1
5. CN(C)CCCNc1nc2ccccc2c2c(=O)c3cc(F)ccc3sc12
6. COc1cc(Nc2ncc3c(C)nc(-c4cccc(C(F)(F)F)c4)n3n2)cc(OC)c1OC
7. COC1=C(C)C(=O)N2[C@@H]1[C@H](c1ccccc1)OC21C=CC(=O)C=C1
8. Cc1cccc(NS(=O)(=O)c2ccc3c(c2)OCCOCCOCCOCCO3)c1

["> 100 µM", "27.1 µM", "> 100 µM", "> 100 µM", "3.53 µM", "10.6 µM", "> 32 µM", "> 100 µM"]

Each recorded value in this set is attributed to PubChem BioAssay (NCI).
